test-protocol: Population pharmacokinetic modeling of rutin, intravenous administration
Type: in vivo, Wistar rats
setup-conditions: Table S1; rutin i.v.; run Pure rutin and extract model: model of covariate 1
attribute-measured: k12 pop (h⁻¹)

compound | result-units | observed
C[C@@H]1O[C@@H](OC[C@H]2O[C@@H](Oc3c(-c4ccc(O)c(O)c4)oc4cc(O)cc(O)c4c3=O)[C@H](O)[C@@H](O)[C@@H]2O)[C@H](O)[C@H](O)[C@H]1O [Rutin, quercetin-3-O-rutinoside] | h⁻¹ | 2.62

---

test-protocol: Population pharmacokinetic modeling of rutin, intravenous administration
Format: in vivo, Wistar rats
setup-conditions: Table S1; rutin i.v.; run Pure rutin and extract model: final model

compound | k21 pop
C[C@@H]1O[C@@H](OC[C@H]2O[C@@H](Oc3c(-c4ccc(O)c(O)c4)oc4cc(O)cc(O)c4c3=O)[C@H](O)[C@@H](O)[C@@H]2O)[C@H](O)[C@H](O)[C@H]1O [Rutin, quercetin-3-O-rutinoside] | 13.6 h⁻¹

---

test-protocol: Population pharmacokinetic modeling of rutin, intravenous administration
Type: in vivo, Wistar rats
setup-conditions: Table S1; rutin i.v.; run Pure rutin and extract model: model of covariate 1

molecule | k pop (h⁻¹)
C[C@@H]1O[C@@H](OC[C@H]2O[C@@H](Oc3c(-c4ccc(O)c(O)c4)oc4cc(O)cc(O)c4c3=O)[C@H](O)[C@@H](O)[C@@H]2O)[C@H](O)[C@H](O)[C@H]1O [Rutin, quercetin-3-O-rutinoside] | 1.58

---

test-protocol: Population pharmacokinetic modeling of rutin, intravenous administration
Format: in vivo, Wistar rats
setup-conditions: Table S1; rutin i.v.; run Pure rutin: two-compartment model, first order elimination
Description: Population pharmacokinetic (PopPK) modeling for rutin and quercetin (produced by deconjugation of Q3OG and Q3OS) was performed using the software program Monolix 2019R1 (Lixoft®, Paris, France). One- and two-compartment structural models with first-order elimination were evaluated, and double first-order absorption was included for the oral dosing experiments. […]
attribute-measured: k21 pop (h⁻¹)

compound | observed
C[C@@H]1O[C@@H](OC[C@H]2O[C@@H](Oc3c(-c4ccc(O)c(O)c4)oc4cc(O)cc(O)c4c3=O)[C@H](O)[C@@H](O)[C@@H]2O)[C@H](O)[C@H](O)[C@H]1O [Rutin, quercetin-3-O-rutinoside] | 19.4

---

test-protocol: Pharmacokinetics of rutin after intravenous administration, non-compartmental analysis
Assay type: in vivo, Wistar rats
setup-conditions: male, Wistar, rat, iv; rutin in plasma; pure rutin i.v. 2.9 mg/kg; read-out: Cl (converted)

molecule | result-units | clearance
C[C@@H]1O[C@@H](OC[C@H]2O[C@@H](Oc3c(-c4ccc(O)c(O)c4)oc4cc(O)cc(O)c4c3=O)[C@H](O)[C@@H](O)[C@@H]2O)[C@H](O)[C@H](O)[C@H]1O [Rutin, quercetin-3-O-rutinoside] | mL/min/kg | 1.5

---

test-protocol: Population pharmacokinetic modeling of rutin, intravenous administration
Assay type: in vivo, Wistar rats
setup-conditions: Table S1; rutin i.v.; run Pure rutin: two-compartment model, first order elimination
attribute-measured: k pop (h⁻¹)

compound | result-units | observed
C[C@@H]1O[C@@H](OC[C@H]2O[C@@H](Oc3c(-c4ccc(O)c(O)c4)oc4cc(O)cc(O)c4c3=O)[C@H](O)[C@@H](O)[C@@H]2O)[C@H](O)[C@H](O)[C@H]1O [Rutin, quercetin-3-O-rutinoside] | h⁻¹ | 1.61

---

test-protocol: Population pharmacokinetic modeling of rutin, intravenous administration
Type: in vivo, Wistar rats
setup-conditions: Table S1; rutin i.v.; run Pure rutin and extract model: final model

molecule | k12 pop
C[C@@H]1O[C@@H](OC[C@H]2O[C@@H](Oc3c(-c4ccc(O)c(O)c4)oc4cc(O)cc(O)c4c3=O)[C@H](O)[C@@H](O)[C@@H]2O)[C@H](O)[C@H](O)[C@H]1O [Rutin, quercetin-3-O-rutinoside] | 2.6 h⁻¹

---

test-protocol: Population pharmacokinetic modeling of rutin, intravenous administration
Type: in vivo, Wistar rats
setup-conditions: Table S1; rutin i.v.; run Pure rutin and extract model: model of covariate 1
attribute-measured: k21 pop (h⁻¹)

compound | attribute-measured | observed
C[C@@H]1O[C@@H](OC[C@H]2O[C@@H](Oc3c(-c4ccc(O)c(O)c4)oc4cc(O)cc(O)c4c3=O)[C@H](O)[C@@H](O)[C@@H]2O)[C@H](O)[C@H](O)[C@H]1O [Rutin, quercetin-3-O-rutinoside] | k21 pop | 9.67

---

test-protocol: Pharmacokinetics of rutin after intravenous administration, non-compartmental analysis
Format: in vivo, Wistar rats
setup-conditions: male, Wistar, rat, iv; rutin in plasma; pure rutin i.v. 2.9 mg/kg
attribute-measured: half-life (min)

compound | attribute-measured | observed
C[C@@H]1O[C@@H](OC[C@H]2O[C@@H](Oc3c(-c4ccc(O)c(O)c4)oc4cc(O)cc(O)c4c3=O)[C@H](O)[C@@H](O)[C@@H]2O)[C@H](O)[C@H](O)[C@H]1O [Rutin, quercetin-3-O-rutinoside] | half-life | 32.4

---

test-protocol: Population pharmacokinetic modeling of rutin, intravenous administration
Format: in vivo, Wistar rats
setup-conditions: Table S1; rutin i.v.; run Pure rutin: one compartment model, first order elimination
attribute-measured: k pop (h⁻¹)

compound | observed
C[C@@H]1O[C@@H](OC[C@H]2O[C@@H](Oc3c(-c4ccc(O)c(O)c4)oc4cc(O)cc(O)c4c3=O)[C@H](O)[C@@H](O)[C@@H]2O)[C@H](O)[C@H](O)[C@H]1O [Rutin, quercetin-3-O-rutinoside] | 1.22

---

test-protocol: Pharmacokinetics of rutin after intravenous administration, non-compartmental analysis
Assay type: in vivo, Wistar rats
setup-conditions: male, Wistar, rat, iv; rutin in plasma; pure rutin i.v. 2.9 mg/kg; read-out: Vdss

compound | Vd (L/kg)
C[C@@H]1O[C@@H](OC[C@H]2O[C@@H](Oc3c(-c4ccc(O)c(O)c4)oc4cc(O)cc(O)c4c3=O)[C@H](O)[C@@H](O)[C@@H]2O)[C@H](O)[C@H](O)[C@H]1O [Rutin, quercetin-3-O-rutinoside] | 0.07

---

test-protocol: Pharmacokinetics of rutin after intravenous administration, non-compartmental analysis
Assay type: in vivo, Wistar rats
setup-conditions: male, Wistar, rat, plasma, iv; rutin i.v.; pure rutin, set of doses; read-out: Cl from the NCA (converted)

compound | clearance
C[C@@H]1O[C@@H](OC[C@H]2O[C@@H](Oc3c(-c4ccc(O)c(O)c4)oc4cc(O)cc(O)c4c3=O)[C@H](O)[C@@H](O)[C@@H]2O)[C@H](O)[C@H](O)[C@H]1O [Rutin, quercetin-3-O-rutinoside] | 1.58 mL/min/kg

---

test-protocol: Pharmacokinetics of rutin after intravenous administration, non-compartmental analysis
Format: in vivo, Wistar rats
setup-conditions: male, Wistar, rat, iv; rutin in plasma; pure rutin i.v. 1.45 mg/kg
attribute-measured: AUC(0-inf) (ng·h/mL)

molecule | observed
C[C@@H]1O[C@@H](OC[C@H]2O[C@@H](Oc3c(-c4ccc(O)c(O)c4)oc4cc(O)cc(O)c4c3=O)[C@H](O)[C@@H](O)[C@@H]2O)[C@H](O)[C@H](O)[C@H]1O [Rutin, quercetin-3-O-rutinoside] | 14900

---

test-protocol: Pharmacokinetics of rutin after intravenous administration, non-compartmental analysis
Assay type: in vivo, Wistar rats
setup-conditions: male, Wistar, rat, iv; rutin in plasma; pure rutin i.v. 1.45 mg/kg

molecule | half-life (min)
C[C@@H]1O[C@@H](OC[C@H]2O[C@@H](Oc3c(-c4ccc(O)c(O)c4)oc4cc(O)cc(O)c4c3=O)[C@H](O)[C@@H](O)[C@@H]2O)[C@H](O)[C@H](O)[C@H]1O [Rutin, quercetin-3-O-rutinoside] | 39.6

---

test-protocol: Population pharmacokinetic modeling of rutin, intravenous administration
Type: in vivo, Wistar rats
setup-conditions: Table S1; rutin i.v.; run Pure rutin: selection of model error and final model

compound | k21 pop, h⁻¹
C[C@@H]1O[C@@H](OC[C@H]2O[C@@H](Oc3c(-c4ccc(O)c(O)c4)oc4cc(O)cc(O)c4c3=O)[C@H](O)[C@@H](O)[C@@H]2O)[C@H](O)[C@H](O)[C@H]1O [Rutin, quercetin-3-O-rutinoside] | 16.8

---

test-protocol: Population pharmacokinetic modeling of rutin, intravenous administration
Type: in vivo, Wistar rats
setup-conditions: Table S1; rutin i.v.; run Pure rutin: selection of model error and final model
attribute-measured: k12 pop (h⁻¹)

compound | attribute-measured | result-units | observed
C[C@@H]1O[C@@H](OC[C@H]2O[C@@H](Oc3c(-c4ccc(O)c(O)c4)oc4cc(O)cc(O)c4c3=O)[C@H](O)[C@@H](O)[C@@H]2O)[C@H](O)[C@H](O)[C@H]1O [Rutin, quercetin-3-O-rutinoside] | k12 pop | h⁻¹ | 2.5

---

test-protocol: Population pharmacokinetic modeling of rutin, intravenous administration
Format: in vivo, Wistar rats
setup-conditions: Table S1; rutin i.v.; run Pure rutin: two-compartment model, first order elimination

molecule | result-units | k12 pop
C[C@@H]1O[C@@H](OC[C@H]2O[C@@H](Oc3c(-c4ccc(O)c(O)c4)oc4cc(O)cc(O)c4c3=O)[C@H](O)[C@@H](O)[C@@H]2O)[C@H](O)[C@H](O)[C@H]1O [Rutin, quercetin-3-O-rutinoside] | h⁻¹ | 5.24
